- test-system: T1, A33 antigen (full-length human A33) (human, UniProt Q99795 22-319)
- T1 construct: Class I cell membrane protein of the Ig superfamily; also called GPA33; human A33 antigen
- T1 sequence: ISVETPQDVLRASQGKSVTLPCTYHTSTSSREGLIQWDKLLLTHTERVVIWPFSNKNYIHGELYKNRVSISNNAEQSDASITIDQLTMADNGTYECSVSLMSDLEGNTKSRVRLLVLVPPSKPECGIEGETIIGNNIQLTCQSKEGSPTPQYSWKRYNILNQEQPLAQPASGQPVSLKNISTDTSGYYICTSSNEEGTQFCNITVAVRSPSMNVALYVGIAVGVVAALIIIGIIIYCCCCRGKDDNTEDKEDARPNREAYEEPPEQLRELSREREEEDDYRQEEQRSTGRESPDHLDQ
- experimental-protocol: FCM competition on COLO205 cells; antibody 1 µg/ml, competitor mouse anti-A33 antibody 100 µg/ml
For each entry below, report its Inhibition (%) value.
Give your result in % as a bare value.

Prompt line: Which measured Inhibition (%) value corresponds to 125M165DAAA (antibody, V domains shown, Human IgG1 kappa antibody purified from the hybridoma (FERM BP-10106); also called 125M165DAAA antibody) VH: QVQLVESGGGVVQPGRSLRLSCAASGFTFSYYGMHWVRQAPGKGLEWVAVIWYDGSNKYYADSVKGRFTISRDNSKKTLYLQMNSLRAEDTAVYYCARDGHSSGWGDFQHWGQGTLVTVSS VL: EIVLTQSPATLSLSPGERATLSCRASQSVSSSLAWYQQKPGQAPRLLIYDASNRATGIPARFSGSGSGTDFTLTISSLEPEDFAIYYCQQRSNWPPTFGQGTKVEIK ?
Response line: 96

Prompt line: Which measured Inhibition (%) value corresponds to 125M10AA (antibody, human IgG1, kappa, V domains shown, Human IgG1 kappa antibody purified from hybridoma 125M10AA (FERM BP-10107); also called 125M10AA antibody) VH: QLQVQESGPGLVKPSETLSLICTVSGGSIRTSGYYWGWFRQPPGKGLEWIGTSHNSGSTYYNPSLKSRVTISVDTSKNQFSLKLNSVTAADTAVYYCARQGYDFKVNIDVWGQGTTVTVSS VL: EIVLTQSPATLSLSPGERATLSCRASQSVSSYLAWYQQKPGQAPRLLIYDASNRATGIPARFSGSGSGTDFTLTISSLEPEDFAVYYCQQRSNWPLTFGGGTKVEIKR ?
Response line: 5

Prompt line: Which measured Inhibition (%) value corresponds to 125N26F6AA (antibody, human IgG1, kappa, V domains shown, Human IgG1 kappa antibody purified from hybridoma 125N26F6AA (FERM BP-10109); also called 125N26F6AA antibody) VH: QVQLVESGGGVVQPGRSLRLSCAASGFTFSHYGMHWVRQAPGKGLEWVALIWYDGSNKYYADSVKGRFTISRDNSKNTLYLQMNSLRAEDTAVYYCARDPLAAGTSYFDYWGQGTLVTVSS VL: EIVLTQSPDFQSVTPKEKVTITCRASQSIGSSLHWYQQKPDQSPKLLIKYASQSFSGVPSRFSGSGSGTDFTLTINSLEAEDAAAYYCHQSSSLPFTFGPGTKVDIKR ?
Response line: 98

Prompt line: Which measured Inhibition (%) value corresponds to 125Q54AAAA (antibody, V domains shown, Human IgG1 kappa antibody purified from the hybridoma (FERM BP-10105); also called 125Q54AAAA antibody) VH: EVQLLESGGGLVQPGGSLRLSCAASGFTFSSYAMSWVRQAPGKGLEWVSDISGSGGYTYYADSVKGRFTISRDNSKNTLYLQMNSLRAEDTAVYYCAKTGDGSGSYSPDSWGQGTLVTVSS VL: DIQMTQSPSSLSASVGDRVTITCRASQGISRWLAWYQQKPEKAPKSLIYAASSLQSGVPSRFSGSGSGTDFTLTISSLQPEDFATYYCQQYNSYPYTFGQGTKLEIK ?
Response line: 46.5
